# experimental target: BACE1 enzyme (Homo sapiens, UniProt P56817)
# Construct: transfected with a soluble BACE construct (BACE1deltaTM96His); His (C)
# Sequence (P56817 46-457 limits assumed): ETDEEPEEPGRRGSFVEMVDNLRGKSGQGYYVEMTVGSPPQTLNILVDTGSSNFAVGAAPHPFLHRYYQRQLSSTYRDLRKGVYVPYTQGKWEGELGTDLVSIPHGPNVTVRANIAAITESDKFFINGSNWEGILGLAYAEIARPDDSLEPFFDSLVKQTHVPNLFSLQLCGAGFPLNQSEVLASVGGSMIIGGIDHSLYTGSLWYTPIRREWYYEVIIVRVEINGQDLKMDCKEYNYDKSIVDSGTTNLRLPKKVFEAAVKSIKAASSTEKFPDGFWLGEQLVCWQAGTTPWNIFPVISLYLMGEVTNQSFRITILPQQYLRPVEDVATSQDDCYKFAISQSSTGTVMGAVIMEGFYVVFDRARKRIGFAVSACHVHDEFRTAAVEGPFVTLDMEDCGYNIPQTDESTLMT
# protocol description: BACE1 Cell-Free Assay (fluorescence polarization, cleavage of synthetic APP substrate)
# test conditions: geometric mean of 2-4 determinations unless otherwise indicated (b: ≥5 determinations; c: single determination); 0.1 nM BACE1, 150 nM peptide substrate, pH 4.5, 3 hours at 37° C.
# From the text: BACE1 Cell-Free Assay: Beta-secretase (BACE) is one of the enzymes involved in the generation of the amyloid beta peptide found in the amyloid plaques of Alzheimer's disease patients. This assay measures the inhibition of the beta-secretase enzyme as it cleaves a non-native peptide. […]
recorded metric: pIC50
Friendly reminder that pIC50 comes from taking -log10 of the concentration in mol/L.

molecule	recorded metric	value observed
NC1=N[C@@]2(c3nc(NC(=O)c4ccc(F)cn4)cs3)COC3(CCC3)C[C@H]2CS1	pIC50	6.15
CC1(C)C[C@H]2CSC(N)=N[C@@]2(c2nc(NC(=O)c3ccc(OC(F)F)cn3)cs2)CO1	pIC50	6.94
CC#CCOc1ccc(C(=O)Nc2csc([C@@]34COC(C)(C)C[C@@H]3CSC(N)=N4)n2)nc1 (single isomer, unassigned)	pIC50	4.51
NC1=N[C@@]2(c3nc(NC(=O)c4ccc(OC(F)F)cn4)cs3)COC3(CC3)C[C@H]2CS1 (single isomer, unassigned)	pIC50	6.50

# pIC50 lookup, item C[C@]1(CF)C[C@H]2CSC(N)=N[C@@]2(c2nc(NC(=O)c3ccc(OC(F)F)cn3)cs2)CO1
6.75

Name the reported pIC50 value associated with the molecule NC1=N[C@@]2(c3nc(NC(=O)c4ccc(OC(F)F)cn4)cs3)COC3(COC3)C[C@H]2CS1
6.17

Item under review: CC[C@@]1(C)C[C@H]2CSC(N)=N[C@@]2(c2nc(NC(=O)c3ccc(OC(F)F)cn3)cs2)CO1 . Reported pIC50?
7.39

Measured values drawn from patent US10112958B2 for this set.
